ENDPOINT_NAME: melting point (°C)

INSERT INTO assay_data (molecule, readout_number) VALUES
  ('CN(C)C(=O)c1cc(C2CCCN2c2cc(F)cc(CO)c2)c2nc(N3CCOCC3)cnc2c1 (centres unmarked) [Compound 45]', 80);

A = CNCCN(C)C(=O)c1cc(C(C)Nc2cc(F)c(C(F)(F)F)c(F)c2)c2nc(N3CCOCC3)cnc2c1 (centres unmarked) [Compound 224]
B = CN(C)C(=O)c1cc(N(C)Cc2cc(F)cc(F)c2)c2nc(N3CCOCC3)cnc2c1 [Compound 358]
Could you tell me which of A and B has the lower melting point reading? Mark your answer with the label of the selected entry. B

A = O=C(c1cc(C2CCCN2c2cc(F)cc(F)c2)c2nc(N3CCOCC3)cnc2c1)N1CCC1 (single isomer, unassigned) [Compound 37]
B = CC(Oc1cc(F)cc(F)c1)c1cc(-c2cnc[nH]2)cc2ncc(N3CCOCC3)nc12 (single isomer, unassigned) [Compound 21]
Could you tell me which of A and B has the lower melting point reading? Mark your answer with the label of the selected entry. B
(B: 184 °C, A: 276 °C)

====

Target: kinase enzymes (Homo sapiens)
Sequence (P48736 whole entry): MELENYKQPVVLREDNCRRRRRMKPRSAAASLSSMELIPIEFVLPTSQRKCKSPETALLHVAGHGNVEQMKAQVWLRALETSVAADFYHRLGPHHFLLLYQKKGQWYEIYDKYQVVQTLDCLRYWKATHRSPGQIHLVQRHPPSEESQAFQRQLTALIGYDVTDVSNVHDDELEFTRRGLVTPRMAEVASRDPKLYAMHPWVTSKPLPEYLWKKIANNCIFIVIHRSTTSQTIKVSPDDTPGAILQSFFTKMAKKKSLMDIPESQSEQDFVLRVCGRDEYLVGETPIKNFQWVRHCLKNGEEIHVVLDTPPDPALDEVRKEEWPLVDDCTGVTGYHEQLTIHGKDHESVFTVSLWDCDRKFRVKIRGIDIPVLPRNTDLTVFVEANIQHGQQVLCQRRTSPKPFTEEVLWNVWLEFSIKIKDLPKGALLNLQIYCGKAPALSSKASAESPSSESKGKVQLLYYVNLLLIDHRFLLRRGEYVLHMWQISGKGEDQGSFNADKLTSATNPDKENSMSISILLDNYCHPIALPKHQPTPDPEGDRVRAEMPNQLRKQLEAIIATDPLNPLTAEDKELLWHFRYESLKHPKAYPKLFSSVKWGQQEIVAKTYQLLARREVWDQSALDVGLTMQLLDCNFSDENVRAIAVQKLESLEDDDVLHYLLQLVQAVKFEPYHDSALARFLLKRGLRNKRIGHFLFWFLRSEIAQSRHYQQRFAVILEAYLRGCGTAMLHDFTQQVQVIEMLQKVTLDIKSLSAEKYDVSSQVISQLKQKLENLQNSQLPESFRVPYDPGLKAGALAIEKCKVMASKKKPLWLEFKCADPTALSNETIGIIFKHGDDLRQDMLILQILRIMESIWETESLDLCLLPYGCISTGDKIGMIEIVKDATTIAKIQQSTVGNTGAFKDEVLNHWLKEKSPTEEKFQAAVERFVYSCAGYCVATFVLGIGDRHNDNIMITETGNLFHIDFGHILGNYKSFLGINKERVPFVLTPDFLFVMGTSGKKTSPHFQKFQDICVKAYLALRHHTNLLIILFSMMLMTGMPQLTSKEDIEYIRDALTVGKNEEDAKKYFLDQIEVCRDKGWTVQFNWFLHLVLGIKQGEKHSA
pKd: −log10 of the molar value.
ENDPOINT_NAME: pKd

A = CC(Nc1cc(F)cc(F)c1)c1cc(C(=O)NCCO)cc2ncc(N3CCOCC3)nc12 (single isomer, unassigned)
B = CC(Nc1ccc(F)c(F)c1)c1cc(C(=O)N2CCC[C@H](O)C2)cc2ncc(N3CCOCC3)nc12 (single isomer, unassigned) [Compound 302b]
Which of the two gives a bigger number for pKd: A or B ? Mark your answer with the label of the selected entry. A

====

ENDPOINT_NAME: melting point (°C)

INSERT INTO results (compound, readout_number) VALUES
  ('CC(Oc1cccc(F)c1)c1cc(C(=O)NCCO)cc2ncc(N3CCOCC3)nc12 (single isomer, unassigned) [Compound 334b]', 134),
  ('CC(Nc1cc(F)cc(F)c1)c1cc(C(=O)N2CCN(C)CC2)cc2ncc(N3CCOCC3)nc12 (centres unmarked)', 80),
  ('CN[C@H]1CCN(C(=O)c2cc(C(C)Oc3ccc(F)c(F)c3)c3nc(N4CCOCC4)cnc3c2)C1 (single isomer, unassigned) [Compound 370b]', 80);

P = Cc1c(F)cccc1NCc1cc(C(=O)N(C)C)cc2ncc(N3CCOCC3)nc12
Q = COC(=O)c1cc(C(C)Nc2cc(F)cc(F)c2)c2nc(N3CCOCC3)cnc2c1 (centres unmarked)
R = CC(Nc1cc(F)cc(F)c1)c1cc(CNCCS(C)(=O)=O)cc2ncc(N3CCOCC3)nc12 (centres unmarked)
Would you mind ranking these compounds by ascending melting point? Answer format: the labels, ordered as requested. R, P, Q
(R: 80 °C, P: 150 °C, Q: 244 °C)

====

Molecular target: PI3Kβ (Homo sapiens, UniProt P42338)
Construct: purchased DiscoveRx Corporation, San Diego (contract service, KINOMEscan)
Sequence (P42338 whole entry): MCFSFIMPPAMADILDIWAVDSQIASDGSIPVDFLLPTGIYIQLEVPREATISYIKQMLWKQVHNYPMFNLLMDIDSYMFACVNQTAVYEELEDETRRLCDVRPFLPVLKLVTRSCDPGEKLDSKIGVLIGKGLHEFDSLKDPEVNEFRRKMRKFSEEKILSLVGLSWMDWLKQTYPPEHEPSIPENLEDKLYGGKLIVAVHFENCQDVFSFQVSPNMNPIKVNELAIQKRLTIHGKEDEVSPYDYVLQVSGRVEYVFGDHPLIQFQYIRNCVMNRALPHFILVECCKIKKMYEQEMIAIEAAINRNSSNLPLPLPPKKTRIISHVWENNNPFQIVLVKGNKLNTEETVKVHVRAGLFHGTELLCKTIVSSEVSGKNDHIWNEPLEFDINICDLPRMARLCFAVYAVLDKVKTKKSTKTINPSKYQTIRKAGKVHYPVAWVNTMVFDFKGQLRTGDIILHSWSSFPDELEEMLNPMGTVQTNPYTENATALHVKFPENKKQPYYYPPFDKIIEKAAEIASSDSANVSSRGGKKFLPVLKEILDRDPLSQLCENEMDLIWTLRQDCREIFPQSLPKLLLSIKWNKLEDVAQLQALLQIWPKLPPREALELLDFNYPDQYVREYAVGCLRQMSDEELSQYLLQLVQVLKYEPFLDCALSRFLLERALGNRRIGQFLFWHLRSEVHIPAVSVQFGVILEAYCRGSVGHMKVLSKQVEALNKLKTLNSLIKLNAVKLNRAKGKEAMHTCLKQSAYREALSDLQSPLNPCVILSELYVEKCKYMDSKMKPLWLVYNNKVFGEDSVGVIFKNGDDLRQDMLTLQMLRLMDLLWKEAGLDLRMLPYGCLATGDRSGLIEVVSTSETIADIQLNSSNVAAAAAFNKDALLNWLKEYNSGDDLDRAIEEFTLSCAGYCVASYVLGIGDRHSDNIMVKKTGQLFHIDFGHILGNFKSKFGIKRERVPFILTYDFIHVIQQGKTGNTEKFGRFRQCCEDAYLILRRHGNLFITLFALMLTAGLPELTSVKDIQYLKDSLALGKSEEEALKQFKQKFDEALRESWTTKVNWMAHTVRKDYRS
Assay: Enzyme binding assay (KINOMEscan, DiscoveRx)
Conditions: PIK3Cβ_h, read-out: Kd PIK3Cβ_h
pKd: −log10 of the molar value.
ENDPOINT_NAME: pKd

INSERT INTO results (compound, readout_number) VALUES
  ('CNCCNC(=O)c1cc([C@H](C)Oc2cccc(F)c2)c2nc(N3CCOCC3)cnc2c1 [Compound 123a]', 6.97),
  ('Fc1cc(F)cc(N2CCCC2c2cncc3ncc(N4CCOCC4)nc23)c1 (single isomer, unassigned) [Compound 25]', 7.43),
  ('CC(Nc1cc(F)c(F)c(F)c1)c1cc(C(=O)NC[C@@H](C)O)cc2ncc(N3CCOCC3)nc12 (single isomer, unassigned) [Compound 284b]', 5.67),
  ('CC(Nc1cccc(F)c1)c1cc(C(=O)NC[C@@H](C)O)cc2ncc(N3CCOCC3)nc12 (single isomer, unassigned) [Compound 338b]', 6.07),
  ('CC(Oc1ccc(Cl)c(F)c1)c1cc(C(=O)N(C)CCN(C)C)cc2ncc(N3CCOCC3)nc12 (single isomer, unassigned) [Compound 313a]', 8.52);

A = COC(=O)c1cc(C(C)N(C)c2cccc(F)c2)c2nc(N3CCOCC3)cnc2c1 (centres unmarked)
B = CC(Nc1cc(F)c(F)c(F)c1)c1cc(C(=O)N(C)C2CCNC2)cc2ncc(N3CCOCC3)nc12 (single isomer, unassigned) [Compound 296a]
C = CC(Nc1cccc(F)c1)c1cc(C(=O)NC[C@@H](C)O)cc2ncc(N3CCOCC3)nc12 (some centres unmarked) [Compound 338]
D = CNCCOCCN(C)C(=O)c1cc(C(C)Nc2ccc(F)c(F)c2)c2nc(N3CCOCC3)cnc2c1 (single isomer, unassigned) [Compound 345b]
Would you mind ranking these compounds by ascending pKd? Answer format: the labels, ordered as requested. D, A, C, B
(D: 6.14, A: 6.67, C: 7.92, B: 9.00)

I = Cc1c(F)cccc1CNc1cc(C(=O)N(C)CCNC(C)C)cc2ncc(N3CCOCC3)nc12
II = CNCCN(C)C(=O)c1cc(C(C)Nc2cc(F)cc(F)c2)c2nc(N3CCOCC3)cnc2c1 (single isomer, unassigned) [Compound 137]
III = CC(Nc1cc(F)c(F)c(F)c1)c1cc(C(=O)O)cc2ncc(N3CCOCC3)nc12 (centres unmarked)
IV = CNCCNC(=O)c1cc(C(C)Nc2cc(F)cc(Cl)c2)c2nc(N3CCOCC3)cnc2c1 (centres unmarked)
// ranking: key=pKd, reverse=True Answer format: the labels, ordered as requested. II, IV, I, III
(II: 10.00, IV: 9.40, I: 9.00, III: 8.30)

====

Biological target: PI3Kβ (Homo sapiens, UniProt P42338)
Construct: purchased DiscoveRx Corporation, San Diego (contract service, KINOMEscan)
Assay: Enzyme binding assay (KINOMEscan, DiscoveRx)
Settings: PIK3Cβ_h, read-out: Kd PIK3Cβ_h
pKd: −log10 of the molar value.
ENDPOINT_NAME: pKd

a = CC(C)NCCNC(=O)c1cc(NCc2cc(F)cc(F)c2)c2nc(N3CCOCC3)cnc2c1
b = CN(C)C(=O)c1cc(C2CCCN2c2cccc(F)c2)c2nc(N3CCOCC3)cnc2c1 (stereo not shown)
Which of the two gives a bigger number for pKd: a or b ? Mark your answer with the label of the selected entry. b
(b: 9.00, a: 8.05)

====

Target: PI3Kδ (Homo sapiens)
Construct: purchased DiscoveRx Corporation, San Diego (contract service, KINOMEscan)
Sequence (O00329 1-1044): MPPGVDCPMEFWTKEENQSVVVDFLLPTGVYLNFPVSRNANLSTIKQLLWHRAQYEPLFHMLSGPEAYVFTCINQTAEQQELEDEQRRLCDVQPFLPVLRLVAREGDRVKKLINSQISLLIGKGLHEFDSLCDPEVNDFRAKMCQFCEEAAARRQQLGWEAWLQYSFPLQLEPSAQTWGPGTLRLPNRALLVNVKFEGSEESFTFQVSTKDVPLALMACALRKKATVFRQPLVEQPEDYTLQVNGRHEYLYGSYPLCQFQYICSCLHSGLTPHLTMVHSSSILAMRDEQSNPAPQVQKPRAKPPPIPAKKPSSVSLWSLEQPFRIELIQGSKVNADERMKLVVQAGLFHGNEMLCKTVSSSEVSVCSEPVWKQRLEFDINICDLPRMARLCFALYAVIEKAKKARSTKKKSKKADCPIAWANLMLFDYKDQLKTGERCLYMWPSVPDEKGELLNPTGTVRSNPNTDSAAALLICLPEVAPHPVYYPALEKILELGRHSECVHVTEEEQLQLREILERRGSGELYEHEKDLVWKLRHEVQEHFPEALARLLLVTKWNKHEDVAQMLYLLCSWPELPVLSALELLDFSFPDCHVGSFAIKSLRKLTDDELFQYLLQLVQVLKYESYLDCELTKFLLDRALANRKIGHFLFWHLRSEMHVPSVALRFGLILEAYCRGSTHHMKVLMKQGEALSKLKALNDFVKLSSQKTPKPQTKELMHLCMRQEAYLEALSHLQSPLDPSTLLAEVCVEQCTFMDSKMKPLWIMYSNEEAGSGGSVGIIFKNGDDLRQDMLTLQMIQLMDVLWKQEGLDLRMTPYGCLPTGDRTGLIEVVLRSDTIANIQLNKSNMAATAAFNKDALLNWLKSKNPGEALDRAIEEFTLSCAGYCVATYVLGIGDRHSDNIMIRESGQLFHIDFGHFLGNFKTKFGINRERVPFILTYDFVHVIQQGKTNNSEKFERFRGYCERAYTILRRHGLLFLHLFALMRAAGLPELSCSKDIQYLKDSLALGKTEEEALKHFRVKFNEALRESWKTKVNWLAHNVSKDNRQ
Test: Enzyme binding assay (KINOMEscan, DiscoveRx)
Conditions: PIK3Cδ_h
ENDPOINT_NAME: Kd (µM)

1 = CC(Nc1cc(F)cc(F)c1)c1cc(CN2CCOCC2)cc2ncc(N3CCOCC3)nc12 (centres unmarked) [Compound 168]
2 = Cc1cccc(N(C)C(C)c2cc(C(=O)N(C)C)cc3ncc(N4CCOCC4)nc23)c1 (single isomer, unassigned) [Compound 128]
Which of the two gives a bigger number for Kd: 1 or 2 ? Mark your answer with the label of the selected entry. 2
(2: 15.1 µM, 1: 1.86 µM)

A = CC(c1cc(CO)cc2ncc(N3CCOCC3)nc12)N(C)c1cccc(F)c1 (centres unmarked) [Compound 111]
B = CNCCNC(=O)c1cc(C(C)Oc2ccc(F)c(F)c2)c2nc(N3CCOCC3)cnc2c1 (single isomer, unassigned) [Compound 344a]
Could you tell me which of A and B has the lower Kd reading? Mark your answer with the label of the selected entry. B

P = CC(C)NCCNC(=O)c1cc(NCc2cc(F)cc(F)c2)c2nc(N3CCOCC3)cnc2c1 [Compound 342]
Q = CC(Nc1cc(F)cc(F)c1)c1cc(C(=O)N(C)CCN(C)C)cc2ncc(N3CCOCC3)nc12 (single isomer, unassigned) [Compound 181]
R = CC(Nc1ccc(F)c(F)c1)c1cc(C(=O)N[C@H]2CCNC2)cc2ncc(N3CCOCC3)nc12 (single isomer, unassigned) [Compound 374a]
S = CNCCNC(=O)c1cc([C@H](C)Oc2cccc(F)c2)c2nc(N3CCOCC3)cnc2c1 [Compound 123]
// ranking: key=Kd, reverse=True Answer format: the labels, ordered as requested. Q, S, P, R

1 = O=C(NCCO)c1cc(N2CCCC2c2cc(F)cc(F)c2)c2nc(N3CCOCC3)cnc2c1 (single isomer, unassigned) [Compound 245]
2 = CC(Nc1ccccc1)c1cc(C(=O)N(C)C)cc2ncc(N3CCOCC3)nc12 (centres unmarked) [Compound 150]
Which of the two gives a bigger number for Kd: 1 or 2 ? Mark your answer with the label of the selected entry. 1
(1: 1.05 µM, 2: 0.501 µM)

P = CC(Nc1cccc(F)c1)c1cc(C(=O)NC[C@@H](C)O)cc2ncc(N3CCOCC3)nc12 (single isomer, unassigned) [Compound 338a]
Q = CC(Nc1cc(F)cc(F)c1)c1cc(CO)cc2ncc(N3CCOCC3)nc12 (single isomer, unassigned) [Compound 154b]
R = CC(Nc1cc(F)cc(F)c1)c1cc(C(=O)NC[C@H](C)O)cc2ncc(N3CCOCC3)nc12 (single isomer, unassigned) [Compound 246a]
// ranking: key=Kd, reverse=True Answer format: the labels, ordered as requested. Q, R, P
(Q: 14.8 µM, R: 3.89 µM, P: 1.07 µM)

I = CC(C)NCCNC(=O)c1cc(C(C)Oc2ccc(F)c(F)c2)c2nc(N3CCOCC3)cnc2c1 (single isomer, unassigned) [Compound 286a]
II = CC(Oc1cc(F)cc(F)c1)c1cc(-c2cnc[nH]2)cc2ncc(N3CCOCC3)nc12 (single isomer, unassigned) [Compound 22]
Which of the two gives a bigger number for Kd: I or II ? Mark your answer with the label of the selected entry. II
(II: 18.6 µM, I: 5.75 µM)

P = Cc1c(CNc2cc(C(=O)N(C)C)cc3ncc(N4CCOCC4)nc23)cccc1C(F)(F)F [Compound 399]
Q = [2H]C([2H])(O)C([2H])([2H])NC(=O)c1cc(C(C)Nc2cccc(F)c2)c2nc(N3CCOCC3)cnc2c1 (single isomer, unassigned) [Compound 408b]
R = CC(Oc1ccc(F)c(F)c1)c1cc(C(=O)N2CC[C@H](N(C)C)C2)cc2ncc(N3CCOCC3)nc12 (single isomer, unassigned) [Compound 363a]
Would you mind ranking these compounds by ascending Kd? Answer format: the labels, ordered as requested. R, P, Q
